# System: Tolloid-like protein 1 (Homo sapiens, UniProt O43897, I156V/N221S/V284A)
# Sequence (O43897 148-1013 I156V/N221S/V284A limits assumed): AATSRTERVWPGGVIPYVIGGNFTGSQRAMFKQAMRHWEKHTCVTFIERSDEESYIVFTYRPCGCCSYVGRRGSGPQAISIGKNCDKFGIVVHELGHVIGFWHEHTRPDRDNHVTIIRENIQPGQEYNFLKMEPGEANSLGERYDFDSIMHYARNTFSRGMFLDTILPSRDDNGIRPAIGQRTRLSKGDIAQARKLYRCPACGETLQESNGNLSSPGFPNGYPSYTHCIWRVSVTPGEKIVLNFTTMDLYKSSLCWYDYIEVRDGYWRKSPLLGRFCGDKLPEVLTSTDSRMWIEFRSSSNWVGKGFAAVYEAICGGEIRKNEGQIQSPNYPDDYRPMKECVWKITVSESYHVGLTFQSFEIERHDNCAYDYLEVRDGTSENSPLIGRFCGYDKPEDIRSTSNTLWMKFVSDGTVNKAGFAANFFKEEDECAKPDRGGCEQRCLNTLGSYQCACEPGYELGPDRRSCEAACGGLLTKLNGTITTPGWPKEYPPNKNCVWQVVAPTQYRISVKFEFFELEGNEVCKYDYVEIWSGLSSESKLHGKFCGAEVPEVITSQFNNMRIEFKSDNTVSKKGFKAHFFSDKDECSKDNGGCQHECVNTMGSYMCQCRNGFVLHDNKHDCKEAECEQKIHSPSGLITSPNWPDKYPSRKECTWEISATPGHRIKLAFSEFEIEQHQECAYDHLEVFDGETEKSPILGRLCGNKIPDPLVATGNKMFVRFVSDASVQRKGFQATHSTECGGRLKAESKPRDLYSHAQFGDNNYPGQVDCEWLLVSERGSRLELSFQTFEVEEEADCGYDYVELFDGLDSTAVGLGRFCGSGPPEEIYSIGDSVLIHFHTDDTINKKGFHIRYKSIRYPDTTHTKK
# Assay overview: Inhibition of recombinant human TLL1 I156V/N221S/V284A mutant expressed in CHOE1A cells pre-incubated for 10 mins before promyostatin peptide substrate addition and measured after 60 mins by FRET based assay
Parameter measured: IC50

CCCCC[C@H](CN(O)C=O)C(=O)NCNC(=O)c1ccc(-c2ccc(C(=O)O)cc2)o1 = < 398 nM
CCCCC[C@@H](C(=O)NCNC(=O)c1ccc(-c2ccc(C(=O)N[C@@H](CCC(=O)O)C(=O)O)c(OCC)c2)o1)[C@@H](CC)N(O)C=O = < 398 nM
CCCCC[C@@H](C(=O)NCNC(=O)c1ccc(-c2cc(O)cc(P(=O)(O)O)c2)o1)[C@@H](CC)N(O)C=O = < 398 nM
CCCCC[C@@H](C(=O)NCNC(=O)c1ccc(-c2cc(OCC)cc(C(F)(F)C(=O)O)c2)o1)[C@@H](CC)N(O)C=O = < 398 nM

Here is the next item to consider.
[in] Query: IC50; subject: CCCCC[C@H](CN(O)C=O)C(=O)NCNC(=O)c1ccc(-c2cccc(S(N)(=O)=O)c2)o1
[out] < 398 nM

----------
# System: Tolloid-like protein 1 (Homo sapiens, UniProt O43897, I156V/N221S/V284A)
# Assay overview: Inhibition of recombinant human TLL1 I156V/N221S/V284A mutant expressed in CHOE1A cells pre-incubated for 10 mins before promyostatin peptide substrate addition and measured after 60 mins by FRET based assay
Parameter measured: IC50

CCCCC[C@@H](C(=O)NCNC(=O)c1ccc(-c2cc(OCC)cc(C(=O)NCCN)c2)o1)[C@@H](CC)N(O)C=O = < 398 nM
CCCCC[C@H](CN(O)C=O)C(=O)NCNC(=O)c1ccc(-c2ccccc2)o1 = < 398 nM
CCCCC[C@@H](C(=O)NCNC(=O)c1ccc(-c2ccc(C(=O)N[C@H](CC(=O)O)C(=O)O)c(OCC)c2)o1)[C@@H](CC)N(O)C=O = < 398 nM

[in] Query: IC50; subject: CCCCC[C@@H](C(=O)NCNC(=O)c1ccc(-c2cc(OCC)cc(C(=O)N[C@@H](CC(=O)O)C(=O)O)c2)o1)[C@@H](CC)N(O)C=O
[out] < 398 nM

[in] Quick one: CCCCC[C@@H](C(=O)NCNC(=O)C1CCC(c2ccccc2)O1)[C@@H](CC)N(O)C=O (stereo partly specified)
[out] < 398 nM

[in] Quick one: CCCCC[C@H](CN(O)C=O)C(=O)NCNC(=O)c1ccc(-c2cccc(C(=O)O)c2F)o1
[out] < 398 nM

[in] Quick one: CCCCC[C@H](CN(O)C=O)C(=O)NCNC(=O)c1ccc(-c2cccc(C(C)C(=O)O)c2)o1 (stereo partly specified)
[out] < 398 nM

[in] Quick one: CCCCC[C@@H](C(=O)NCNC(=O)c1ccc(-c2cccc(C(C)(C)C(=O)O)c2)o1)[C@@H](CC)N(O)C=O
[out] < 398 nM

[in] Quick one: CCCCC[C@@H](C(=O)NCNC(=O)c1ccc(-c2ccc(C(=O)NCP(=O)(O)O)c(C)c2)o1)[C@@H](CC)N(O)C=O
[out] < 398 nM

----------
The following compounds are listed with their measured IC50 values.
# System: Bone morphogenetic protein 1 (Homo sapiens)
# Sequence (P13497 whole entry, the tested form may be a part): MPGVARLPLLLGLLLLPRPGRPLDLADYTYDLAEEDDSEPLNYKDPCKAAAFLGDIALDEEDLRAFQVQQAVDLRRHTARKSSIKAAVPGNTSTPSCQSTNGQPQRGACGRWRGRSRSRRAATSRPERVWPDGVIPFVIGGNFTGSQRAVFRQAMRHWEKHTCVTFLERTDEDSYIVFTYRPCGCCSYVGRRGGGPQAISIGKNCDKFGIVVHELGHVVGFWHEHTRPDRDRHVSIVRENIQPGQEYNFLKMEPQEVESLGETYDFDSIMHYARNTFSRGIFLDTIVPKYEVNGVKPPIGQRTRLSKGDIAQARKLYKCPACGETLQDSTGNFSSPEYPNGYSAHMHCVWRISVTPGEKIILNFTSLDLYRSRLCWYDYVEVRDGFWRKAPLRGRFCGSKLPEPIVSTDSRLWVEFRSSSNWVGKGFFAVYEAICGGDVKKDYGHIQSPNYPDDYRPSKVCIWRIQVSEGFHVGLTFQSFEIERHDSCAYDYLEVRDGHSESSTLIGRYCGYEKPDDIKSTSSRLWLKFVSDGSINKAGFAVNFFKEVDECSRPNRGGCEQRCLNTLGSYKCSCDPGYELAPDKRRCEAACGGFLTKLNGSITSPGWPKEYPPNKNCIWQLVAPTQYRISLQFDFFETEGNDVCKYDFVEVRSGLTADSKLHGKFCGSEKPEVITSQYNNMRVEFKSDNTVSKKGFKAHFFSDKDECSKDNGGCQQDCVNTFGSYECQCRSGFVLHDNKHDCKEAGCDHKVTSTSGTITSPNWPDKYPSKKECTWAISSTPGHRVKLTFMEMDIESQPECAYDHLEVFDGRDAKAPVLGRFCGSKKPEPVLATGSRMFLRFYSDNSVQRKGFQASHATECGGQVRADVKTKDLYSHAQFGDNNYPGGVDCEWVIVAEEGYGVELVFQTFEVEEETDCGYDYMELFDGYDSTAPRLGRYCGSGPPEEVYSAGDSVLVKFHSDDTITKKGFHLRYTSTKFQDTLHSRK
# Assay overview: Inhibition of C-terminal FLAG-6x-His epitope tagged and N-terminal human RAGE signal sequence tagged human BMP1 (23 to 721 amino acids) expressed in CHO-E1 cells pre-incubated for 10 mins before promyostatin peptide substrate addition and measured after 30 mins using 50 nM BMP1 by FRET based assay
# Assay type: cell-based

In the examples that follow, each entry is paired with its recorded IC50.
CCCCC[C@H](CN(O)C=O)C(=O)NCNC(=O)c1ccc(-c2ccc3c(c2)S(=O)(=O)NC3)o1 = < 200 nM
CCCCC[C@H](CN(O)C=O)C(=O)NCNC(=O)c1ccc(-c2cccc(SC)c2)o1 = < 200 nM
CCCCC[C@@H](C(=O)NCNC(=O)C1CCC(c2cc(OCC)cc(P(=O)(O)O)c2)O1)[C@@H](CC)N(O)C=O (some centres not stated) = < 200 nM

[in] Query: IC50; subject: CCCCC[C@@H](C(=O)NCNC(=O)c1ccc(-c2cc(OCC)cc(C(=O)N[C@@H](CCC(=O)O)C(=O)O)c2)o1)[C@@H](CC)N(O)C=O
[out] < 200 nM

[in] Quick one: CCCCC[C@H](CN(O)C=O)C(=O)NCNC(=O)c1ccc(-c2cccc(C(=O)O)c2F)o1
[out] < 200 nM

[in] Quick one: CCCCC[C@@H](C(=O)NCNC(=O)c1ccc(-c2cccc(/C(N)=N/O)c2)o1)[C@@H](CC)N(O)C=O
[out] < 200 nM

[in] Quick one: CCCCC[C@@H](C(=O)NCNC(=O)c1ccc(-c2cc(OCC(=O)O)cc(C(=O)N[C@@H](CC(=O)O)C(=O)O)c2)o1)[C@@H](CC)N(O)C=O
[out] < 200 nM
